- Tested on: Caenorhabditis elegans dauer (daf-2(e1370))
- Measurement Protocol: proportion of mobile C. elegans dauer larvae relative to DMSO control (fraction of DMSO control); higher = more viable, less nematicidal, active = 0.63 or less; extreme values may be limits of the assay
- Run Conditions: 60 µM; 5 days; temperature: 20 °C
# proportion of mobile C. elegans dauer larvae per entry
Respond numerically, and do not add a unit to the figure.

Compound | Tgt | Quantitative Readout
CCCOc1ccc(-c2nc(-c3cccnc3)no2)cc1 | Caenorhabditis elegans dauer (daf-2(e1370)) | 1

// switching to the query compound
Please give the documented proportion of mobile C. elegans dauer larvae of "O=C(NC1CCCCC1)c1ccccc1-c1nc(-c2ccc(F)cc2)no1"
1
